meta.source: patent US7666867B2

Molecular target: CB1 receptor (Rattus norvegicus, UniProt P20272)
Construct: membranes were prepared from rat forebrain membranes; from tissue; host or cells: rat forebrain membranes
Sequence (P20272 whole entry): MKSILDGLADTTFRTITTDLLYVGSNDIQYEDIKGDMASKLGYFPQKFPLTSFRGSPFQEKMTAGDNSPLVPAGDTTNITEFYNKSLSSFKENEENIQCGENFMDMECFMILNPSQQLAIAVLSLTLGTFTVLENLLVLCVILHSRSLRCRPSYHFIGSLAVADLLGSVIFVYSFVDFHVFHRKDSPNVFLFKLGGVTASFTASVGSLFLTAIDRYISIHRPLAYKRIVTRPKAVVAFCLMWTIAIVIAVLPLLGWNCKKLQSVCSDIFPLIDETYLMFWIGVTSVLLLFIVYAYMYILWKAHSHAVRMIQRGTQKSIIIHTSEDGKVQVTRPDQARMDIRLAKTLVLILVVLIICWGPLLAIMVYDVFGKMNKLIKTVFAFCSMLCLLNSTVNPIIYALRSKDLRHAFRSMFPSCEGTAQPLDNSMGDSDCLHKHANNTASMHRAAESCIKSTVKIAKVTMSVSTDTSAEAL
Assay: CB1 receptor binding assay, [3H]CP-55,940 displacement, rat forebrain membranes
Conditions: rat forebrain membranes, 0.8 nM [3H]CP-55,940; read-out: Ki (nM) CB1
PROPERTY LABEL: Ki
# do not omit the unit; it follows the number

{"COMPOUND STRUCTURE": "O=C(NN1CCCCC1)c1nn(-c2ccccc2)c2cc(Br)ccc12", "RECORDED MEASUREMENT": "1850 nM"}

Look at each compound and report its Ki.
1. CN(C)CCCn1nc(C(=O)NC23CC4CC(CC(C4)C2)C3)c2ccccc21
2. CN(C)CCCn1nc(C(=O)Nc2cccc3ccccc23)c2ccccc21

RESULT:
443 nM
451 nM
